B1: CDS2 (parent)
chain: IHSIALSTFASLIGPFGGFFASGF

Variants of: B1
assayNotes: protein stability index of a GFP-peptide fusion (GPS, HEK-293T) (PSI 1-6); higher = more stable;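 note: lentivirally expressed fusions sorted by FACS into six bins by GFP to DsRed ratio, PSI derived from sequencing read proportions per bin multiplied by bin number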
conditionSummary: c terminus: a fixed tail appended
Below, each entry is listed with its recorded protein stability index.
Output: the number by itself.

F19L: 3.19
I4R: 3.04

Alright, here's another variant for you.
# protein stability index (variant: S3K ) is 3.55

This collection of values is drawn from the supplement of paper PMC10567573.
